# ASSAY SYSTEM: HLA A*3001 (Homo sapiens, UniProt P04439, D140H/D185E/E176W/F33S/G80R/H175R/K168Q/R138E/R41S)
# EXPERIMENT DESCRIPTION: biochemical
# Assay type: binding
Where a SMILES comes first, the peptide text is derived from it.
ASSAY READOUT: IC50
State the value with its unit after it.

Use these answered entries as a reference point.
{"COMPOUND": "CC[C@H](C)[C@H](NC(=O)[C@H](C)NC(=O)[C@@H](N)CCCCN)C(=O)N[C@@H](CO)C(=O)N[C@@H](CC(N)=O)C(=O)N[C@@H](C)C(=O)N[C@@H](CCCNC(=N)N)C(=O)N[C@@H](CC(C)C)C(=O)N[C@@H](CCCCN)C(=O)O [3102.0204] (H-KAISNARLK-OH)", "ASSAY READOUT": "IC50", "RESULT VALUE": "26 nM"}
{"COMPOUND": "CSCC[C@H](NC(=O)[C@H](Cc1ccc(O)cc1)NC(=O)[C@H](CC(N)=O)NC(=O)[C@H](Cc1ccc(O)cc1)NC(=O)[C@H](CO)NC(=O)[C@H](CCCCN)NC(=O)[C@@H](NC(=O)[C@@H](N)CCCCN)C(C)C)C(=O)N[C@@H](CC(C)C)C(=O)O [3102.0219] (H-KVKSYNYML-OH)", "ASSAY READOUT": "IC50", "RESULT VALUE": "0.18 nM"}
{"COMPOUND": "CC[C@H](C)[C@H](NC(=O)[C@@H](NC(=O)[C@H](CO)NC(=O)[C@@H](N)CCSC)C(C)C)C(=O)N[C@@H](CO)C(=O)N[C@@H](CC(N)=O)C(=O)N1CCC[C@H]1C(=O)N[C@@H](CO)C(=O)N[C@@H](CCCCN)C(=O)O [3102.0255] (H-MSVISNPSK-OH)", "ASSAY READOUT": "IC50", "RESULT VALUE": "20 nM"}

Let's switch to this compound now.
Req: Give its IC50 value. Item: CC[C@H](C)[C@H](NC(=O)[C@H](CCSC)NC(=O)[C@H](CCSC)NC(=O)[C@@H](NC(=O)[C@@H](N)CCCCN)[C@@H](C)O)C(=O)N[C@@H](CC(N)=O)C(=O)N1CCC[C@H]1C(=O)N[C@@H](Cc1ccccc1)C(=O)N[C@@H](CCSC)C(=O)O [3102.0254] (H-KTMMINPFM-OH)
Resp: 0.36 nM
